Biological target: Carnitine O-palmitoyltransferase 1, muscle isoform (Rattus norvegicus, UniProt Q63704)
Sequence (Q63704 whole entry): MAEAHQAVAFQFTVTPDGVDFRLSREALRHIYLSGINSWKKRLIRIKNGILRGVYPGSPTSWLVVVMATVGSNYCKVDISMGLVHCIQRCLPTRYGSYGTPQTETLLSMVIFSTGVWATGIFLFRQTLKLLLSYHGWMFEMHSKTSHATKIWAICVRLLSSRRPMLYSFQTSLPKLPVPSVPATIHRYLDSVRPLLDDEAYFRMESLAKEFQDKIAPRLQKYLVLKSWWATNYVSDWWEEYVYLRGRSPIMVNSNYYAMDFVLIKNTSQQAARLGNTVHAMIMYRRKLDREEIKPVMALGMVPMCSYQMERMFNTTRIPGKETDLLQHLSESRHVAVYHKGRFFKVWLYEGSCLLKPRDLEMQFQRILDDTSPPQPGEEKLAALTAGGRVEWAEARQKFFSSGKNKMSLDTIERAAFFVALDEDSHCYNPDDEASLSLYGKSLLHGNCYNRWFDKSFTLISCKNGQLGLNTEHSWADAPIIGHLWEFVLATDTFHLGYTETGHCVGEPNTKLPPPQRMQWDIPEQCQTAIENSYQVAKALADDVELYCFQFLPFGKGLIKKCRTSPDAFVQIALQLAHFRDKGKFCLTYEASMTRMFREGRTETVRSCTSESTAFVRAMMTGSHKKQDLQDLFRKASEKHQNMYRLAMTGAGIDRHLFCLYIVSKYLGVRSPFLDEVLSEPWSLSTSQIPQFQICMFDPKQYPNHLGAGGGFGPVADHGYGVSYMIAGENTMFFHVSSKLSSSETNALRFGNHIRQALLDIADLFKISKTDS
Experiment: Tested against neonatal rat cardiac myocyte carnitine palmitoyltransferase 1
Reported endpoint: pKi
// scale note: pKi = -log10(conc_M); give the bare number

Asked: What value of measured pKi is listed for CC(C)(C)CC(O)CC(=O)O (configuration not stated) ?
Given back: 2.44

Asked: // lookup pKi for `C[N+](C)(C)C[C@H](O)CC(=O)[O-]`
Given back: 4.00
